molecular target: furin, P09958; assay: furin cleavage Z-score vs untreated control; higher = more cleavage, active = 3.5 or more, inactive = 1 or less, 8 variable residues between constant flanks; conditions: 15 min;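 further: purified furin at 1:10 enzyme:substrate in 50 mM HEPES pH 7.5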
Sequence (P09958 whole entry): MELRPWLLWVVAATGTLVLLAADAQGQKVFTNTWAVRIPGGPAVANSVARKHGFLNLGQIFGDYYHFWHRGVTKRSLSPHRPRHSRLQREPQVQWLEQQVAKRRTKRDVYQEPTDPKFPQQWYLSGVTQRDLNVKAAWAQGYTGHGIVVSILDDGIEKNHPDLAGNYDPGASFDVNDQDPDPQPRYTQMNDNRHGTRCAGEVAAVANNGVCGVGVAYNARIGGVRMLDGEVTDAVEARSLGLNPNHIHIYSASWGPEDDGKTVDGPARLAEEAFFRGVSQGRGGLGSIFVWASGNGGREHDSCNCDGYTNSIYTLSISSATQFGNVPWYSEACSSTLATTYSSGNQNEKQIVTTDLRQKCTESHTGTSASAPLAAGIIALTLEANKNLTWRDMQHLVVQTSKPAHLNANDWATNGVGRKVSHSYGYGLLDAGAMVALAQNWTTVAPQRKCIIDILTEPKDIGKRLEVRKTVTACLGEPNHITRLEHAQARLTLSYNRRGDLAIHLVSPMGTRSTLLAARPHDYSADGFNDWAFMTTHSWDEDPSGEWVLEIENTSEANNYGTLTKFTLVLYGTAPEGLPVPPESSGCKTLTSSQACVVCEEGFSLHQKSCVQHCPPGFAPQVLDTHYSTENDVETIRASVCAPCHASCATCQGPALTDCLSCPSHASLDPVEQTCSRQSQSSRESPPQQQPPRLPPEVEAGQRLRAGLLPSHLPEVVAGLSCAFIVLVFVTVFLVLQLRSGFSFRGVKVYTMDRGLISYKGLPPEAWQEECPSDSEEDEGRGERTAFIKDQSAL
The list shows a part of the results. No count for the full screen is at hand.
propertyName: furin cleavage Z-score
Answer using only a numeral; do not append any unit.

[[record]]
residuesequence = "CAEGVVCCSMAGNASASA [HC2136]"
propertyname = "furin cleavage Z-score"
valueobserved = 1.53

[[record]]
residuesequence = "CAPALSTGLIAGNASASA [HC502]"
propertyname = "furin cleavage Z-score"
valueobserved = 1.24

[[record]]
residuesequence = "CATTPISGSWAGNASASA [HC45]"
propertyname = "furin cleavage Z-score"
valueobserved = -0.739

[[record]]
residuesequence = "CAAAYCLSTGAGNASASA [HC996]"
propertyname = "furin cleavage Z-score"
valueobserved = 0.367

[[record]]
residuesequence = "CAEVHTSTWVAGNASASA [HC2195]"
propertyname = "furin cleavage Z-score"
valueobserved = -0.225

[[record]]
residuesequence = "CARPLRGVSGAGNASASA [FS-3018]"
propertyname = "furin cleavage Z-score"
valueobserved = -0.697


Then there is this sequence:
Enquiry: Can you look up the measured furin cleavage Z-score of CANVDQDLVGAGNASASA [HC712] for me?
Return: -0.928
